# subject_of_test: human delta-like ligand 3 (DLL3) on SHP77 cells (human) (UniProt Q9NYJ7)
# Sequence (Q9NYJ7 27-618, stated change not applied): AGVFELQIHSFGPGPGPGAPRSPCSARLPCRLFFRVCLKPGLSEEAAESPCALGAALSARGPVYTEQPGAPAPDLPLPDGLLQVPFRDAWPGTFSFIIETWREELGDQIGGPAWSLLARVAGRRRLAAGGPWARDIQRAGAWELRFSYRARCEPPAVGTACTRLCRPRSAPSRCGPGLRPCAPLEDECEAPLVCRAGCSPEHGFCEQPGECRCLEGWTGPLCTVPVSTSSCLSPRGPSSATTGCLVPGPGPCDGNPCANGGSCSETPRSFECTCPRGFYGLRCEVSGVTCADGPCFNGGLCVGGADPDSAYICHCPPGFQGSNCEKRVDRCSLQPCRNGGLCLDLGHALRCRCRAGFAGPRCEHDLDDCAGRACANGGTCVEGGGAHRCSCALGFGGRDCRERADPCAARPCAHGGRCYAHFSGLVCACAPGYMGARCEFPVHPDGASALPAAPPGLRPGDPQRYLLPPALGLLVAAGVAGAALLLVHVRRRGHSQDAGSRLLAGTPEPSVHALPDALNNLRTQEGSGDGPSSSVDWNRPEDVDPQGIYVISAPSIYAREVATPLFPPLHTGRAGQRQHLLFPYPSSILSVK
# assay_text: FACS on SHP77 cells
I would appreciate it if you labelled entries 1 when MFI at 0.032 nM is 200 MFI or higher, otherwise -1.

binder="Hab006VL4VH1-hFc (scFv, part only; not given: scFv linker and human IgG1 Fc, V domains shown, not shown: another chain or arm of the molecule; a dimerising Fc or GST; small tags and cut ends) VL: DIVMTQSPDSLAVSLGERATINCRATKSISKYLAWYQQKPGQTNKLLIFSGSTLQSGVPDRFSGSGSGTDFTLTISSLQAEDVAVYYCQQHHEYPYTFGGGTKVEIK VH: EVQLVQSGAEVKKPGASVKVSCKASGYTFTSYWMHWVRQAPGQRLEWMGVIDPSDSLANYNQEFKGRVTITVDTSASTAYMELSSLRSEDTAVYYCARDSTVVAPMDYWGQGTTVTVSS" qualitative_label=1
binder="Hab015VL4VH1b-hFc (scFv, part only; not given: VL-VH linker and human IgG1 Fc, V domains shown, not shown: another chain or arm of the molecule; a dimerising Fc or GST; small tags and cut ends) VL: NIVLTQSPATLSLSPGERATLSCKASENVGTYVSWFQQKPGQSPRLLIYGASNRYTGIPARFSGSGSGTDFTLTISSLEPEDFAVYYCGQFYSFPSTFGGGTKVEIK VH: EVQLVESGGGLVKPGGSLRLSCAASGITFSNFWMNWVRQAPGKGLEWVGQIRLKSEDYATHYAESVKGRFTISREDSKNTVYLQMNSLKTEDTAVYYCTTGYYFDYWGQGTTVTVSS" qualitative_label=-1
binder="Hab008L3H2a-hFc (scFv, part only; not given: VL-VH linker and human IgG1 Fc, V domains shown, not shown: another chain or arm of the molecule; a dimerising Fc or GST; small tags and cut ends) VL: DIVMTQSPDSLAVSLGERATINCKASQNVGTAVAWYQQKPGQSPKLLIFSASIRYTGVPDRFSGSGSGTDFTLTISSLQAEDVAVYYCQQYSSSPYTFGGGTKVEIK VH: EVQLVQSGAEVKKPGASVKVSCKASGYTFTDYYMNWVRQAPGQRLEWMGIINPYNSGTSYNQKFRGRVTLTVDKSASTAYMELSSLRSEDTAVYYCSRYDYDYDVEGAMDYWGQGTTVTVSS" qualitative_label=-1
binder="Hab015VL5VH1b-hFc (scFv, part only; not given: VL-VH linker and human IgG1 Fc, V domains shown, not shown: another chain or arm of the molecule; a dimerising Fc or GST; small tags and cut ends) VL: NIQMTQSPSSLSASVGDRVTITCKASENVGTYVSWYQQKPGKSPKLLIYGASNRYTGVPSRFSGSGSGTDFTLTISSLQPEDFATYYCGQFYSFPSTFGGGTKVEIK VH: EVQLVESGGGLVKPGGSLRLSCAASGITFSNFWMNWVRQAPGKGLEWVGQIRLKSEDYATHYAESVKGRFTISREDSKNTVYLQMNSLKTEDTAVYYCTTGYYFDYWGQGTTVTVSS" qualitative_label=-1
